# Assay System: cytoplasmic domain of the human VEGF receptor (VEGFR-2) (Homo sapiens, UniProt P35968)
# Construct: The cytoplasmic domain of the human VEGF receptor (VEGFR-2) was expressed as a Histidine-tagged fusion protein; Histidine tag
# Sequence (P35968 786-1356): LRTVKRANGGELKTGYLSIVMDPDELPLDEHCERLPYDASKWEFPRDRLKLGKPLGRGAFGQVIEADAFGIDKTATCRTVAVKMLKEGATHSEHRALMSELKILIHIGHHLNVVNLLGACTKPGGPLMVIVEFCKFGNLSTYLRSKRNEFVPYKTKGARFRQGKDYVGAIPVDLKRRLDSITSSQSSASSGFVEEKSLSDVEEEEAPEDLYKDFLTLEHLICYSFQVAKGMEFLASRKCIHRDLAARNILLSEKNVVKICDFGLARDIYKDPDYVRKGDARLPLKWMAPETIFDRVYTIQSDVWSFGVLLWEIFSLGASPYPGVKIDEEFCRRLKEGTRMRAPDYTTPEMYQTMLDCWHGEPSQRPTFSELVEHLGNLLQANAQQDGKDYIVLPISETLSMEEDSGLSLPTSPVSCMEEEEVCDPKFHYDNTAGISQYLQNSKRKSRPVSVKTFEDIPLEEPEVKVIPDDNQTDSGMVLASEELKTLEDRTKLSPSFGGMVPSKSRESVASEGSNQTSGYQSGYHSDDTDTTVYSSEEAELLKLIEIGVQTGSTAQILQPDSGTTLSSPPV
# Protocol Details: KDR Assay
# Experimental Setup: His-VEGFR-2; 3.6 μM ATP
Measured Metric: pIC50
// pIC50 here means minus log10 of the molar concentration (mol/L)

These recorded examples may help you get a feel for the data.
O=C1Nc2cc(F)ccc2C1=CNc1ccc(NCCN2CCOCC2)cc1	6.96
CCc1cccc(NC=C2C(=O)Nc3cccc(C)c32)c1	6.82

Proceeding to the next molecule to report its pIC50.
The measured pIC50 that `O=C1Nc2cc(F)ccc2C1=CNc1ccc(OCCN2CCCC2)cc1` showed for cytoplasmic domain of the human VEGF receptor (VEGFR-2) (Homo sapiens, UniProt P35968) is 6.89
